These data points were gathered from ChEMBL document CHEMBL1201862.

- Tested on: UO-31
- Test Details: NCI tumour cell line growth inhibition, 48 h
Active and inactive are the calls of the source. Cut-off read from the data, not from the text of the source: active = GI50 up to about 1.1 µM and inactive = higher.
Parameter call: string, one of active, inactive

Tell me the recorded outcome of this test for `O=S1(=O)C[C@@H](O)[C@H](O)CS1` .
inactive

Tell me the recorded outcome of this test for COc1ccc(Cc2nc3cc([N+](=O)[O-])ccc3n2C[C@@H]2CCCN3CCCCC23)cc1 (stereo not given in full) .
inactive

Tell me the recorded outcome of this test for `CC[C@]1(O)C[C@H]2CN(CCc3c([nH]c4ccccc34)[C@@](C(=O)OC)(c3cc4c(cc3OC)N(C)[C@H]3[C@@](O)(C(=O)OC)[C@H](OC(C)=O)[C@]5(CC)C=CCN6CC[C@]43[C@@H]65)C2)C1` .
active

Tell me the recorded outcome of this test for `Cc1c[n+]([O-])c2ccccc2[n+]1[O-]` .
inactive

Tell me the recorded outcome of this test for `CC(C)(Br)C(=O)C(Br)Br` .
inactive

Tell me the recorded outcome of this test for `COc1cc2ccc3c4cc(OC)c(OCc5ccccc5)cc4cnc3c2cc1OC` .
inactive

Tell me the recorded outcome of this test for Cc1ccc(OCC2OC(n3cnc4nc(Cl)nc(Cl)c43)CC2Oc2ccc(C)cc2)cc1 (stereo not given) .
inactive

Tell me the recorded outcome of this test for `CN(C)c1ccc(/N=C2/C=CC(=C(C#N)C#N)c3ccccc32)cc1` .
active

Tell me the recorded outcome of this test for `COC(=O)NC(C(F)(F)F)(C(F)(F)F)P1(=O)OCCCO1` .
inactive

Tell me the recorded outcome of this test for C=CCSc1nc2c(N)ncnc2n1C1OC(CO)C(O)C1O (stereo not given) .
inactive

Tell me the recorded outcome of this test for `C#CCOCn1cnc2c(Sc3c([N+](=O)[O-])ncn3C)ncnc21` .
inactive

Tell me the recorded outcome of this test for `COc1cc(OC)cc(Oc2nc3ccccc3nc2C(F)(F)F)c1` .
inactive

Tell me the recorded outcome of this test for `Cc1ccc(NC(=O)CSc2nnc(Cc3ccccc3)o2)cc1` .
inactive

Tell me the recorded outcome of this test for `COc1cc(C)c(/C=C/C(=O)N2C(=O)OC[C@@H]2c2ccccc2)c(C)c1` .
inactive

Tell me the recorded outcome of this test for `Oc1c(/N=N\c2ccccc2)c2cccc3ccc4cccc1c4c32` .
inactive

Tell me the recorded outcome of this test for `Cc1ccc(O)c(C(=O)CCCC(=O)c2cc(C)ccc2O)c1` .
inactive

Tell me the recorded outcome of this test for `N=c1nc(N)nc(N)n1-c1ccc(S(N)(=O)=O)cc1` .
inactive

Tell me the recorded outcome of this test for CCCCCCCCCCCCCCCC(=O)OC1C(O)C(CO)OC(OC)C1NC(=O)N(CCCl)N=O (stereo not given) .
inactive

Tell me the recorded outcome of this test for `COc1ccc(-c2nc(Sc3c([N+](=O)[O-])ncn3C)n[nH]2)cc1` .
inactive

Tell me the recorded outcome of this test for `COc1ccc2nc3c(C(=O)NCCN(C)C)cccc3nc2c1` .
inactive

Tell me the recorded outcome of this test for `CCN(CC)Cc1nc2sc3c(c2c(=O)n1-c1ccccc1)CCCC3` .
inactive

Tell me the recorded outcome of this test for COC(=O)C(=O)C(C(=O)C=C(C)C)C(=O)C(=O)Nc1cccc(C(C)=O)c1 (stereo not given) .
inactive

Tell me the recorded outcome of this test for CC12CC(OC(=O)[C@]1(C)O)[C@@H]([C@]1(O)CC[C@H]3[C@@H]4C[C@H]5O[C@]56[C@@H](O)C=CC(=O)[C@]6(C)[C@H]4CC[C@@]31C)C2 (stereo not given in full) .
inactive

Tell me the recorded outcome of this test for `O=C1CN=C(c2ccccc2)c2ccncc2N1` .
inactive

Tell me the recorded outcome of this test for `CN(/N=C/c1cccs1)c1ccc(Cl)cc1[N+](=O)[O-]` .
inactive

Tell me the recorded outcome of this test for `Cc1c(/C=N/NS(=O)(=O)c2ccccc2)no[n+]1[O-]` .
inactive

Tell me the recorded outcome of this test for `CCCCCCCCCCCCOc1ccc(/C=C/C2=[N+](CCCl)CCO2)cc1` .
inactive

Tell me the recorded outcome of this test for `CN(C)C(=N)NC(=S)N(C)C` .
inactive

Tell me the recorded outcome of this test for CN1C(=O)N(C)C(N2CCCC2)c2c1nc1ccccn1c2=O (stereo not given) .
inactive

Tell me the recorded outcome of this test for `FC(F)(F)c1ccc2c(-c3cc[nH]c3)ccnc2c1` .
inactive

Tell me the recorded outcome of this test for `Cn1ccc(=NS(=O)(=O)c2ccccc2)cc1` .
inactive

Tell me the recorded outcome of this test for O=C(CC(C(=O)c1cccs1)c1ccccc1)c1ccccc1O (stereo not given) .
inactive

Tell me the recorded outcome of this test for C=C1CC2(CC(c3ccccc3C)OC(c3ccccc3C)C2)OC1=O (stereo not given) .
inactive

Tell me the recorded outcome of this test for `COc1ccc2c(c1)NC1(CCN(CCCC(=O)c3ccc(F)cc3)CC1)N=N2` .
inactive

Tell me the recorded outcome of this test for `CC1(C)[C@@H]2CC[C@@]1(C)[C@@H]1O[C@@H](O[C@@H](CN)c3cc(Cl)c(OCc4ccccc4)c(OCc4ccccc4)c3)C[C@H]21` .
active

Tell me the recorded outcome of this test for `CC(=O)O[C@@H]1[C@@H](O)C2=C3[C@]4(C)[C@@H]1C(C)(C)C(=O)C[C@@H]4[C@]3(O)[C@H](OC(C)=O)[C@@]1(C[C@@H]1C)C2=O` .
inactive

Tell me the recorded outcome of this test for C/C(=N/Nc1ccc([N+](=O)[O-])cc1[N+](=O)[O-])C(CC(C(=O)NCc1ccccc1)/C(C)=N\Nc1ccc([N+](=O)[O-])cc1[N+](=O)[O-])C(=O)NCc1ccccc1 (stereo not given) .
inactive

Tell me the recorded outcome of this test for `COCN1COCN/C1=N\C#N` .
inactive

Tell me the recorded outcome of this test for `CCCCCCCCOc1ccc(/C=C/C2=[N+](CCO)CCO2)cc1` .
inactive

Tell me the recorded outcome of this test for `O=C(Nc1ccccc1)c1cc2c(cc1Cl)SC(NNCCO)=NS2(=O)=O` .
inactive
